- EXPERIMENTAL PROTOCOL: NCI Yeast Anticancer Drug Screen. Data for the rad50 strain (AID 155);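 note: 0% = growth of vehicle-only cultures of the same strain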
- CONDITION NOTES: S. cerevisiae rad50 strain growth inhibition; at 50.0 µM; stronger effect = higher value
This is part of a sample that, as a whole, favours compounds with a hit. Of some 79,000 tested, about 15% had one in any assay.
ASSAY ENDPOINT: growth inhibition (%)
Entry rule: numbers only, all in %.

Below, 3 compounds whose answers are already recorded.
O=C(CCN1C(=O)NC(c2ccccc2)(c2ccccc2)C1=O)NCCN1CCOCC1
-0.6
COC/C=C(\C)CC/C=C(\C)CCC=C(C)C
-8.2
O=[N+]([O-])c1cc([N+](=O)[O-])c2ccccc2c1NS(=O)(=O)c1ccc(Br)cc1
7.35

Okay, now this compound:
Quick one: growth inhibition of `C1CC[N+]2(CC1)CCCCC2` ?
0.1

Values from PubChem BioAssay (NCI)
